Subject Of Test: UniProt:P14600
Sequence (P14600 whole entry): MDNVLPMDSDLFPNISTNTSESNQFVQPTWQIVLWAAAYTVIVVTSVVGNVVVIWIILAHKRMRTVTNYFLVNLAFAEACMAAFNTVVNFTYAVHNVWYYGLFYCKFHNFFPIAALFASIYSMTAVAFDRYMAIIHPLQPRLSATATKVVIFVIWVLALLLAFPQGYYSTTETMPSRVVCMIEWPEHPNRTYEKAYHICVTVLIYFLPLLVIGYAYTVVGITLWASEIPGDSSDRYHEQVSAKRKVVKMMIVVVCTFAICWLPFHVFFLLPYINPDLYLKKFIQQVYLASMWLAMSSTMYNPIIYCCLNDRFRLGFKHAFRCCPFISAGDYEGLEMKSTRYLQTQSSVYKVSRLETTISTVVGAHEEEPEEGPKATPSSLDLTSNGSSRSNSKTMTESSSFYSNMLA
Readout Name: pIC50
When answering, recall that pIC50 equals minus log10 of the concentration in mol/L, and write that number alone.

Q: So what's the measured pIC50 for this one? C[C@@H](NC(=O)[C@@H](N)Cc1ccc(O)cc1)C(=O)NCC(=O)N[C@@H](Cc1ccccc1)C(=O)N/N=C/c1cc(C(F)(F)F)cc(C(F)(F)F)c1.O=C(O)C(F)(F)F
Ans: 8.37

* * *

Subject Of Test: Mu-type opioid receptor (Rattus norvegicus, UniProt P33535)
Sequence (P33535 whole entry): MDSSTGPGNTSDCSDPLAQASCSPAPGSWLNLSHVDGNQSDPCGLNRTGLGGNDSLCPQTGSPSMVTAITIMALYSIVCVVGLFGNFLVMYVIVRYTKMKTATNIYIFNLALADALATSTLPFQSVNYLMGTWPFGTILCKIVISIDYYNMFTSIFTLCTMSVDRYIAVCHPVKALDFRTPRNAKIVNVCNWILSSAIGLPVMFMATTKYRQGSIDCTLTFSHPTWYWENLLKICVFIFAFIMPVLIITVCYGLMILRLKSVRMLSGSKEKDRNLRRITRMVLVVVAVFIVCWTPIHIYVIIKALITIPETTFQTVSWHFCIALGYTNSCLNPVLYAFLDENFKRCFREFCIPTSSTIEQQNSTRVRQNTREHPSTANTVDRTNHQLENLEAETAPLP
Assay Method Text: Displacement of [3H]DAMGO from MOR in Sprague-Dawley rat brain homogenate measured after 180 mins by scintillation counting analysis
Type: tissue-based
Reported pIC50 values follow for various molecules
Convention used: pIC50 is expressed as -log10 of the molar concentration.

| Structure String | pIC50 |
| --- | --- |
| C[C@@H](NC(=O)[C@@H](N)Cc1ccc(O)cc1)C(=O)NCC(=O)N[C@@H](Cc1ccccc1)C(=O)NN | 8.33 |

Q: Query (molecule): C[C@@H](NC(=O)[C@@H](N)Cc1ccc(O)cc1)C(=O)NCC(=O)N[C@@H](Cc1ccccc1)C(=O)NNC(=O)[C@@H](N)Cc1ccccc1 ; field requested: pIC50
Ans: 9.13

* * *

Subject Of Test: Delta-type opioid receptor (Rattus norvegicus, UniProt P33533)
Sequence (P33533 whole entry): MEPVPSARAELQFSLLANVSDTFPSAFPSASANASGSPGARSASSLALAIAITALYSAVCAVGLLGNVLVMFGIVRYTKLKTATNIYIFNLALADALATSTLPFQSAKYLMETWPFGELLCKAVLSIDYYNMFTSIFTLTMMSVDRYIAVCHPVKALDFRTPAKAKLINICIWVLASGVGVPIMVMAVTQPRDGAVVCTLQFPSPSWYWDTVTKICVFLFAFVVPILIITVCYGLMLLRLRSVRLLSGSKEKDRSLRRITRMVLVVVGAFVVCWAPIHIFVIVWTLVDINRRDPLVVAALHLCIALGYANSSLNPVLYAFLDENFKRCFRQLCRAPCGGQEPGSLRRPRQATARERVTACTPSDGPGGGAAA
Assay Method Text: Displacement of [3H]DELT2 from DOR in Sprague-Dawley rat brain homogenate measured after 180 mins by scintillation counting analysis
Assay type: tissue-based
Entries annotated with measured pIC50
# log scale: pIC50 equals minus log10 of the concentration in mol/L

| Structure String | pIC50 |
| --- | --- |
| C[C@@H](NC(=O)[C@@H](N)Cc1ccc(O)cc1)C(=O)NCC(=O)N[C@@H](Cc1ccccc1)C(=O)NNC(=O)[C@@H](N)Cc1ccccc1 | 7.82 |

Q: Reported pIC50, molecule C[C@@H](NC(=O)[C@@H](N)Cc1ccc(O)cc1)C(=O)NCC(=O)N[C@@H](Cc1ccccc1)C(=O)NN : ____
Ans: 6.64
